TESTED_TARGET: Serine/threonine-protein kinase/endoribonuclease IRE1 (Homo sapiens, UniProt O75460)
Sequence (O75460 whole entry, the tested form may be a part): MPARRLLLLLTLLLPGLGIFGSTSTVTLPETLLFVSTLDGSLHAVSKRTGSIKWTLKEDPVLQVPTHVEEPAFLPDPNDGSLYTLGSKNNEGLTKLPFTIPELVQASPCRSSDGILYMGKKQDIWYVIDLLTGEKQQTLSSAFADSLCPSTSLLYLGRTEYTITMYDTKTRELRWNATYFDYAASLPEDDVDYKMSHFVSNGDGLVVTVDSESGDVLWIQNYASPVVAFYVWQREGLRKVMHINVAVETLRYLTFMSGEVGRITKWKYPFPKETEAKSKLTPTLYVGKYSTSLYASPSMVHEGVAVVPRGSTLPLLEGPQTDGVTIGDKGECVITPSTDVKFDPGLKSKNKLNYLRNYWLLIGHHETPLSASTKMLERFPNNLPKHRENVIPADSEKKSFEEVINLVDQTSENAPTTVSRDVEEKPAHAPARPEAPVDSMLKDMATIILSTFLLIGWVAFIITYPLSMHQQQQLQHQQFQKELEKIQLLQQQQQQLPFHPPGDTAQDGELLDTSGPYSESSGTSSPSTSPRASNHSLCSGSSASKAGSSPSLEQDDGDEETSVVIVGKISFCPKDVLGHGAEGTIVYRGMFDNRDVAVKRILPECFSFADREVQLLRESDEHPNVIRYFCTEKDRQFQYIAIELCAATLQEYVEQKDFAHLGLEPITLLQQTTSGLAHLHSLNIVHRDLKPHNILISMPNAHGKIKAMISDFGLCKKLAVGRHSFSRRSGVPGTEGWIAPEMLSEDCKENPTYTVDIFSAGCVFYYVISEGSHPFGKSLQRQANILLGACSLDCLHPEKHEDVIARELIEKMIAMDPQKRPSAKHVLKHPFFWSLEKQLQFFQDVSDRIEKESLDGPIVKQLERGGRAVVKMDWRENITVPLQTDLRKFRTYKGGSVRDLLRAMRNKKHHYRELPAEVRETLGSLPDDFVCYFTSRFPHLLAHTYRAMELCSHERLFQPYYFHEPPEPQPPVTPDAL
TEST: IRE-1alpha Assay: A fusion protein comprising glutathione S transferase (GST) and human IRE-1α (GST-IRE-1α) obtained from a 500 ml baculovirus-infected insect cell culture can be used to measure IRE-1α activity in vitro. Five μl of a reaction mixture comprising 1× reaction buffer (5× reaction buffer is 100 mM Hepes pH 7.5, 250 mM KOAc, 2.5 mM MgCl2), 3 mM DTT, and 0.4% polyethylene glycol water is added to each well of 384 well plates. Twenty-five nanoliters of a 1 mM test compound solution are added to test wells. Three μl of a 128 ng/ml IRE-1α preparation are added to each test well and to positive control wells (final concentration 5.82 ng/well). Negative control wells contain only reaction mixture and test compound. After spinning the plates at 1200 rpm for 30 seconds, 3 μl of an IRE-1α human mini-XBP-1 mRNA stem-loop substrate 5'-[…]-3' (SEQ ID NO:1), labeled with the fluorescent dye Cy5 at the 5' end and Black Hole Quencher 2 (BH2) at the 3' end, are added to each well of a control plate. The plates are again spun at 1200 rpm for 30 seconds. Final concentrations for the assay are: 63 nM IRE-1α substrate, 5.82 ng IRE-1α protein, and 2.5 μM test compound. The plates are covered with lids and incubated for one hour at 30° C. The plates are then transferred to an ACQUEST™ microplate reader. Data is analyzed using data analysis software, and the percent activity of IRE-1α is calculated.
pEC50: −log10 of the molar value.
OBSERVABLE: pEC50

Some molecules with known pEC50 results, for comparison:
[[record]]
query_smiles = "Cc1nc(N2CCc3c(ccc(O)c3C=O)C2)sc1C(=O)N1CCOCC1"
observable = "pEC50"
result = "< 5.00"

[[record]]
query_smiles = "CN1CCN(C(=O)c2ccc(-c3nc4ccc(O)c(C=O)c4[nH]3)cc2)CC1"
observable = "pEC50"
result = "< 5.00"

[[record]]
query_smiles = "O=Cc1c(O)ccc2cc(-c3ccc(Br)cc3)c(=O)oc12"
observable = "pEC50"
result = "< 5.00"

[[record]]
query_smiles = "Cc1c(-c2ccc(C(=O)N3CCC(C)CC3)cc2)c(=O)oc2c(C=O)c(O)ccc12"
observable = "pEC50"
result = "> 5.00"


INPUT: Returns the measured pEC50 for the input molecule. Input: Cc1c(Br)c(=O)oc2c(C=O)c(O)c(F)cc12
OUTPUT: > 5.00

INPUT: Name the reported pEC50 value associated with the molecule O=Cc1c(O)ccc2nc(-c3ccc(C(=O)NCCN4CCOCC4)cc3)[nH]c12
OUTPUT: < 5.00

INPUT: Reported pEC50 for O=Cc1c(O)ccc2nc(-c3ccc(C(=O)N4CCCC4)cc3)ccc12 : what is it?
OUTPUT: > 5.00

INPUT: Looking for the measured pEC50 of Cc1c(-c2cccc(C(=O)N3CCOCC3)c2)c(=O)oc2c(C=O)c(O)ccc12 , can you help?
OUTPUT: > 5.00

INPUT: Please report the recorded pEC50 for CC(C)N1CCN(c2nc3ccc(O)c(C=O)c3s2)CC1 .
OUTPUT: < 5.00

INPUT: Give the measured pEC50 of Cc1cc(=O)oc2c(C=O)c(O)c(F)cc12 .
OUTPUT: > 5.00
